value.kind: melting point

Recorded melting point, per entry:
[[record]]
molecule = "O=C1CCC(N2Cc3cc(CNC(=O)Nc4cccc(Cl)c4)ccc3C2=O)C(=O)N1 (stereo not drawn)"
value_kind = "melting point"
recorded_result = "215 to 217 °C"

[[record]]
molecule = "O=Cc1c(-c2cccnc2)[nH]c2ccccc12"
value_kind = "melting point"
recorded_result = "148 to 150 °C"


Turning now to a further molecule:
Field request: melting point | item: Cc1cc(SC2CC(=O)N(c3ccccc3)C2=O)cc(C(C)(C)C)c1O (stereo not drawn)
158 to 160 °C

###

Reported melting point is given for each of the following molecules.

Example results:
[[record]]
molecule = "COc1nc(C)c(C(C)O)cc1NC(=O)N1CCN(c2cccc(C)c2C)CC1 (centres undefined)"
recorded_result = "100 to 102 °C"

[[record]]
molecule = "CCN1C(=O)C(=O)N(c2ccc(F)cc2)C1=S"
recorded_result = "172 to 174 °C"

[[record]]
molecule = "O=C(O)CS(=O)(=O)c1cccc(-c2nc(=O)c3ccccc3s2)n1"
recorded_result = "192 to 194 °C"


Let's switch to this molecule now.
Need melting point, item O=C1NC(C(=O)NCCO[N+](=O)[O-])C(c2cccs2)S1 (centres undefined)
120 to 122 °C
